- system name: hCB1 (Homo sapiens, UniProt P21554)
- Sequence (P21554 whole entry): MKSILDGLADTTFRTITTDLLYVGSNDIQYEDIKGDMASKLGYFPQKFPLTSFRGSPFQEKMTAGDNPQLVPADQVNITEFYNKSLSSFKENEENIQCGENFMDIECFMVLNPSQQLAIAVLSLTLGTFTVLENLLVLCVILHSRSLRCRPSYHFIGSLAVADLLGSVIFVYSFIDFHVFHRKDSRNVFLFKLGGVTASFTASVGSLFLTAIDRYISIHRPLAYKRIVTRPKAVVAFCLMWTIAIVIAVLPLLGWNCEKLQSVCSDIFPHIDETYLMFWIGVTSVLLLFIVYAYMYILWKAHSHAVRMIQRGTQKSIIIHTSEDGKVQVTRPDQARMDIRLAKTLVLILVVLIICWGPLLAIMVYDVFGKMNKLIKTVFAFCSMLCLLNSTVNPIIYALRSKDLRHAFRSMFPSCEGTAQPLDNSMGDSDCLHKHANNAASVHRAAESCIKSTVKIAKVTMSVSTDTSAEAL
- measurement notes: bioSensAll ebBRET signaling profiling, hCB1
- Format: cell-based
- Set-up: host or cells: HEK293SL cells, transient PEI transfection
- details: Gi1 biosensor; Log [Compound] (M) -8.22186
measurement label: Gi1 hCB1 response
Numbers only.

Example entries begin here.
## Task Look up Gi1 hCB1 response for this compound: Cc1cc(C(=O)N(C)C(c2ccco2)c2ccco2)nn1-c1cccc(C(F)(F)F)c1
## Result 57.4864

## Task Look up Gi1 hCB1 response for this compound: CC(=O)C(c1cccs1)N(C)C(=O)c1cc(C)n(-c2cccc(C(F)(F)F)c2)n1 (centres unmarked)
## Result 2.07

## Task Look up Gi1 hCB1 response for this compound: COC(=O)[C@@H]1[C@@H]2CC[C@@H]2CN1C(=O)c1cc(C)n(-c2cccc(C(F)(F)F)c2)n1
## Result -2.63

Provide Gi1 hCB1 response values for the following items, in order.
1. Cc1cc(C(=O)NC(c2ccco2)c2ccco2)nn1-c1cccc(C(F)(F)F)c1
2. COc1cccc(C(NC(=O)c2cc(C)n(-c3cccc(C(F)(F)F)c3)n2)c2ccco2)c1 (centres unmarked)
3. Cc1cc(C(=O)NC(c2ccccc2)c2ccco2)nn1-c1cccc(C#N)c1 (centres unmarked)
4. COC(=O)[C@@H]1[C@@H]2CCC[C@@H]2CN1C(=O)c1cc(C)n(-c2cccc(Cl)c2)n1 (racemic)
5. Cc1cc(C(=O)N2CC3(CCC3)[C@@H]2[C@H]2CCCO2)nn1-c1cccc(C(F)(F)F)c1 (single isomer, unassigned)

## Result
[13.1264, 59.7022, -3.794, -8.695, 0.4361]
